These entries and their values trace back to ChEMBL document CHEMBL1137760.

molecular target: Disintegrin and metalloproteinase domain-containing protein 17 (Homo sapiens); test: Inhibition of TACE by FRET assay
Sequence (P78536 whole entry, the tested form may be a part): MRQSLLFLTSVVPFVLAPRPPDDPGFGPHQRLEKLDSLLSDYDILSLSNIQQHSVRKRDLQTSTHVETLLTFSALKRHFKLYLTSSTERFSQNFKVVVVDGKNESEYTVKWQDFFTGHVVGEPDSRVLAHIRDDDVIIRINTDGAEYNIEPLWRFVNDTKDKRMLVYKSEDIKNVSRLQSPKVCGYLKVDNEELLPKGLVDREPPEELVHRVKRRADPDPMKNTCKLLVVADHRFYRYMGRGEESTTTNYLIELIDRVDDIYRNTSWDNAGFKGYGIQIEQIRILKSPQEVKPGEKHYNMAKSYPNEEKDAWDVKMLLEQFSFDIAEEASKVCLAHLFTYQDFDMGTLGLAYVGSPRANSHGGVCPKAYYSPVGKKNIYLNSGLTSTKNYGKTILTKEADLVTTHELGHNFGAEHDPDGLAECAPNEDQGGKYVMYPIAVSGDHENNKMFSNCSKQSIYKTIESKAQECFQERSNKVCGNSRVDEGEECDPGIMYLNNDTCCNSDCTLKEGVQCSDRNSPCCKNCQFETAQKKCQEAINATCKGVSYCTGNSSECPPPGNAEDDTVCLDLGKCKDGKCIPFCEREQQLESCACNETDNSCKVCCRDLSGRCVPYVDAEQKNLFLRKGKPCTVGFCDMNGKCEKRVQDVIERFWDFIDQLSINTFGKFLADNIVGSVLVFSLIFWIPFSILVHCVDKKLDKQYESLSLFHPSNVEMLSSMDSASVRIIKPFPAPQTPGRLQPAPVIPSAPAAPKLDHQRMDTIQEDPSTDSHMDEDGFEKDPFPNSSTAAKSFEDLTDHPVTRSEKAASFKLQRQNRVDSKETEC
For each record, check the reported IC50: if it is below 1000 nM write Criterion met, else write Criterion not met.

>  <Molecule>
CC#CCOc1ccc(S(=O)(=O)NC(Cc2cn(CC)c3ccc(C(=O)O)cc23)C(=O)O)cc1 (racemic)

>  <Assigned label>
Criterion not met

$$$$
>  <Molecule>
CC#CCOc1ccc(S(=O)(=O)NC(Cc2c(C)n(Cc3cccc(C#N)c3)c3ccc(OC)cc23)C(=O)O)cc1 (stereo unspecified)

>  <Assigned label>
Criterion met

$$$$
>  <Molecule>
CC#CCOc1ccc(S(=O)(=O)N[C@H](Cc2cn(C)c3ccccc23)C(=O)O)cc1

>  <Assigned label>
Criterion not met

$$$$
>  <Molecule>
CC#CCOc1ccc(S(=O)(=O)NC(Cc2c[nH]c3ccc(Br)cc23)C(=O)O)cc1 (racemic)

>  <Assigned label>
Criterion met

$$$$
>  <Molecule>
CC#CCOc1ccc(S(=O)(=O)NC(Cc2cn(Cc3cccc(OC)c3)c3ccc(OC)cc23)C(=O)O)cc1 (racemic)

>  <Assigned label>
Criterion not met

$$$$
>  <Molecule>
CC#CCOc1ccc(S(=O)(=O)NC(Cc2cn(Cc3ccccc3F)c3ccc(OC)cc23)C(=O)O)cc1 (racemic)

>  <Assigned label>
Criterion not met

$$$$
>  <Molecule>
CC#CCOc1ccc(S(=O)(=O)NC(Cc2c(C)n(Cc3ccc(C#N)cc3)c3ccc(OC)cc23)C(=O)O)cc1 (racemic)

>  <Assigned label>
Criterion met

$$$$
>  <Molecule>
CC#CCOc1ccc(S(=O)(=O)NC(Cc2c[nH]c3ccc(OC)cc23)C(=O)O)cc1 (single isomer, unassigned; enantiomer 2)

>  <Assigned label>
Criterion met

$$$$
>  <Molecule>
CC#CCOc1ccc(S(=O)(=O)NC(Cc2cn(C)c3ccc(C(=O)O)cc23)C(=O)O)cc1 (racemic)

>  <Assigned label>
Criterion not met

$$$$
>  <Molecule>
CC#CCOc1ccc(S(=O)(=O)NC(Cc2c(C)n(Cc3ccccc3)c3ccc(OC)cc23)C(=O)O)cc1 (racemic)

>  <Assigned label>
Criterion met

$$$$
>  <Molecule>
CC#CCOc1ccc(S(=O)(=O)N[C@H](Cc2cn(CC3CCC3)c3ccccc23)C(=O)O)cc1

>  <Assigned label>
Criterion not met

$$$$
>  <Molecule>
CC#CCOc1ccc(S(=O)(=O)NC(Cc2c(C)n(Cc3cccc(OC)c3)c3ccc(OC)cc23)C(=O)O)cc1 (racemic)

>  <Assigned label>
Criterion met

$$$$
>  <Molecule>
CC#CCOc1ccc(S(=O)(=O)NC(Cc2c[nH]c3ccc(OCc4ccccc4)cc23)C(=O)O)cc1 (single isomer, unassigned; enantiomer 2)

>  <Assigned label>
Criterion met

$$$$
>  <Molecule>
CC#CCOc1ccc(S(=O)(=O)NC(Cc2c(C)n(CC(C)C)c3ccc(Cl)cc23)C(=O)O)cc1 (racemic)

>  <Assigned label>
Criterion met

$$$$
>  <Molecule>
CC#CCOc1ccc(S(=O)(=O)NC(Cc2cn(CC(C)C)c3ccc(OC)cc23)C(=O)O)cc1 (racemic)

>  <Assigned label>
Criterion not met

$$$$
>  <Molecule>
CC#CCOc1ccc(S(=O)(=O)NC(Cc2c[nH]c3cc(F)ccc23)C(=O)O)cc1 (racemic)

>  <Assigned label>
Criterion not met

$$$$
